src = paper PMC10299128

Biological target: mMC1R (Mus musculus, UniProt Q01727)
Sequence (Q01727 whole entry): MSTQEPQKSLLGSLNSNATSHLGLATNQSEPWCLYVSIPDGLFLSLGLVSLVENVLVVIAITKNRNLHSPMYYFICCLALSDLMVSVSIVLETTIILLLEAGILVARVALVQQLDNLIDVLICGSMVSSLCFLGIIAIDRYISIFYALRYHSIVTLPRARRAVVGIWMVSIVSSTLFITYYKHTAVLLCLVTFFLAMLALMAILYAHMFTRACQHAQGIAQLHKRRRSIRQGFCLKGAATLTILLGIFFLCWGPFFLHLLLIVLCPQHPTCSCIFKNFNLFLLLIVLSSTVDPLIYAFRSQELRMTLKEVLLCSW
Test: AlphaScreen cAMP agonist assay, HEK293 cells stably expressing mMC1R
parameterMeasured: EC50 (nM)

See these solved cases before continuing.
compound	targetSystem	unitText	valueMeasured
CC(C)CC1CNC(=N)N1CC1CCCN1CC(CC1CCCCC1)N1CC(C(C)O)N(CC2CCC(C(C)(C)C)CC2)C1=N (stereo not drawn)	mMC1R (Mus musculus, UniProt Q01727)	nM	270
CC(C)C[C@@H]1CNC(=N)N1C[C@@H]1CCCN1C[C@H](Cc1ccccc1)N1C[C@@H]([C@H](C)O)N(CC2CCC(C(C)(C)C)CC2)C1=N (stereo partly drawn)	mMC1R (Mus musculus, UniProt Q01727)	nM	2300

(I) CC(C)C[C@@H]1CNC(=N)N1C[C@H]1CCCN1C[C@H](Cc1ccccc1)N1C[C@H]([C@@H](C)O)N(CC2CCC(C(C)(C)C)CC2)C1=N (stereo partly drawn)
(II) CC(C)C[C@@H]1CNC(=N)N1C[C@@H]1CCCN1C[C@@H](Cc1ccccc1)N1CCN(CC2CCC(C(C)(C)C)CC2)C1=N (stereo partly drawn)
(III) CC(C)C[C@@H]1CNC(=N)N1C[C@@H]1CCCN1C[C@@H](CC1CCCCC1)N1C[C@H]([C@@H](C)O)N(CC2CCC(C(C)(C)C)CC2)C1=N (stereo partly drawn)
(IV) CC(C)C[C@H]1CNC(=N)N1C[C@@H]1CCCN1C[C@H](Cc1ccccc1)N1C[C@H]([C@@H](C)O)N(CC2CCC(C(C)(C)C)CC2)C1=N (stereo partly drawn)
hey, can you rank those compounds up there by EC50? biggest number first please I'd appreciate it if you listed the labels in the requested order. I, IV, III, II

(I) CC(C)C[C@@H]1CNC(=N)N1C[C@@H]1CCCN1C[C@H](CC1CCCCC1)N1C[C@@H]([C@H](C)O)N(CC2CCC(C(C)(C)C)CC2)C1=N (stereo partly drawn)
(II) CC(C)[C@@H]1CNC(=N)N1C[C@@H]1CCCN1C[C@@H](CC1CCCCC1)N1CCN(CC2CCC(C(C)(C)C)CC2)C1=N (stereo partly drawn)
Quick check, higher EC50 between I and II ? Output the label that corresponds to your choice. I
(I: 1800 nM, II: 340 nM)

(I) CC(C)C[C@H]1CNC(=N)N1C[C@@H]1CCCN1C[C@H](Cc1ccccc1)N1C[C@@H]([C@H](C)O)N(CC2CCC(C(C)(C)C)CC2)C1=N (stereo partly drawn)
(II) CC(C)CC1CNC(=N)N1CC1CCCN1CC(Cc1c[nH]c2ccccc12)N1CC(C(C)O)N(CC2CCC(C(C)(C)C)CC2)C1=N (stereo not drawn)
(III) CC(C)C[C@@H]1CNC(=N)N1C[C@H]1CCCN1C[C@H](Cc1ccccc1)N1C[C@@H]([C@H](C)O)N(CC2CCC(C(C)(C)C)CC2)C1=N (stereo partly drawn)
Put the entries in order of EC50, starting with the largest number. Would you mind listing the labels in the order requested? II, I, III
